Target: Cholecystokinin receptor (Rattus norvegicus, UniProt P30551+P30553)
Experiment: Inhibition of [125I]-CCK-8 binding to CCK receptors in rat pancreatic tissue
outcome measure: log10 IC50 (log10 of the value in nM)
Base-10 log of IC50, unit nM.

Recorded log10 IC50, per entry:
compound="CC(C)(C)OC(=O)CN1C(=O)C(NC(=O)CCc2c[nH]c3ccccc23)CCc2ccccc21 (configuration not stated)" outcome_measure="log10 IC50" observed_value=3.30
compound="CC(C)(C)OC(=O)CN1C(=O)C(NC(=O)c2ccc(Cl)cc2)CCc2ccccc21 (configuration not stated)" outcome_measure="log10 IC50" observed_value=2.11
compound="CC(C)(C)OC(=O)CN1C(=O)C(N)CCc2ccccc21 (configuration not stated)" outcome_measure="log10 IC50" observed_value=5.00
compound="CC(C)(C)OC(=O)CN1C(=O)C(NC(=O)c2cc3ccccc3[nH]2)CCCc2ccccc21 (configuration not stated)" outcome_measure="log10 IC50" observed_value=1.78
compound=CC(C)(C)OC(=O)CN1C(=O)[C@@H](NC(=O)c2cc3ccccc3[nH]2)CCc2ccccc21 outcome_measure="log10 IC50" observed_value=2.30

stdin: What log10 IC50 value was documented for this compound, CC(C)(C)OC(=O)CN1C(=O)[C@H](NC(=O)c2cc3ccccc3[nH]2)CCc2ccccc21 ?
stdout: 0.48

stdin: What log10 IC50 value was documented for this compound, CCOC(=O)CN1C(=O)C(NC(=O)c2cc3ccccc3[nH]2)CCc2ccccc21 (configuration not stated) ?
stdout: 2.04

stdin: What log10 IC50 value was documented for this compound, CC(C)(C)OC(=O)CN1C(=O)C(NC(=O)c2cc3ccccc3[nH]2)Cc2ccccc21 (configuration not stated) ?
stdout: 2.30

stdin: What log10 IC50 value was documented for this compound, CC(C)(C)OC(=O)CN1C(=O)C(NC(=O)c2ccc(Cl)c(Cl)c2)CCc2ccccc21 (configuration not stated) ?
stdout: 1.45

stdin: What log10 IC50 value was documented for this compound, O=C(NC1CCc2ccccc2N(Cc2ccccc2)C1=O)c1cc2ccccc2[nH]1 (configuration not stated) ?
stdout: 1.54

stdin: What log10 IC50 value was documented for this compound, CC(C)(C)OC(=O)CN1C(=O)[C@H](NC(=O)c2ccc3ccccc3c2)CCc2ccccc21 ?
stdout: 0.62

stdin: What log10 IC50 value was documented for this compound, CC(C)(C)OC(=O)CN1C(=O)C(NC(=O)c2cc3ccccc3[nH]2)CCc2ccccc21 (configuration not stated) ?
stdout: 0.85
